Hello, the source for this data is paper PMC4893804, in case you need it.

Molecular target: HCMV DNA polymerase (UL54) (Human cytomegalovirus, UniProt P08546)
Sequence (P08546 whole entry): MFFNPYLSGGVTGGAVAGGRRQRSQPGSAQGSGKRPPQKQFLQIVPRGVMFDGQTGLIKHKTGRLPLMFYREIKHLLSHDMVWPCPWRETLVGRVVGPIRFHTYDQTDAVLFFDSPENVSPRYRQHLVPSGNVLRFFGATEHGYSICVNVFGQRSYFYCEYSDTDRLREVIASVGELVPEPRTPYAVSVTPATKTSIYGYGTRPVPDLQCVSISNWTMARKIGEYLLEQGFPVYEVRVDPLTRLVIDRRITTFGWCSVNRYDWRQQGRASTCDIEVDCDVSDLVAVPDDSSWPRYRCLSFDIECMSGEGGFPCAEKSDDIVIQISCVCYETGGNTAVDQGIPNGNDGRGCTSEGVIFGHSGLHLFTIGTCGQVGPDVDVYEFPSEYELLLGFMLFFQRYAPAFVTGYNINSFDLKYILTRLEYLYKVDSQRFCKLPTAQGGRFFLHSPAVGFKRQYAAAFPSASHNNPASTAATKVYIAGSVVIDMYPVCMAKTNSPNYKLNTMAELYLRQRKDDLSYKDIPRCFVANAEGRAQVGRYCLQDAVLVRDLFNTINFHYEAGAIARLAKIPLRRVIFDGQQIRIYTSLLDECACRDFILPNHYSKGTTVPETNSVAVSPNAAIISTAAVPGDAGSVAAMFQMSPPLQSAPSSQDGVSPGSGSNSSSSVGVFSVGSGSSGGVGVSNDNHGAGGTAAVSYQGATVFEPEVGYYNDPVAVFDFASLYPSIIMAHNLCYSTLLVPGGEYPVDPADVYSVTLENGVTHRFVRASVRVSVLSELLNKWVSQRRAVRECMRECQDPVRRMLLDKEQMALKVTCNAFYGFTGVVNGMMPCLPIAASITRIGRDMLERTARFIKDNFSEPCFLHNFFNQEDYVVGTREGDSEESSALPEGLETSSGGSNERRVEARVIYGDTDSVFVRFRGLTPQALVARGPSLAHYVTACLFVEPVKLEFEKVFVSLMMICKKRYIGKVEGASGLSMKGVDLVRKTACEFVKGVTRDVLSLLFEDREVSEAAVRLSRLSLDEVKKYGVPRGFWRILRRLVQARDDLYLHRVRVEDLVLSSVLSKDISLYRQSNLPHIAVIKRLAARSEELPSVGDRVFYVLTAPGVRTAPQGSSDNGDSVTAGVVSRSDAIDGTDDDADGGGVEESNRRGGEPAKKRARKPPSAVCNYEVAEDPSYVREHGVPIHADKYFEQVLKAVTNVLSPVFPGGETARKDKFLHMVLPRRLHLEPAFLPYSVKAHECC
Assay: Enzyme assay with HCMV DNA polymerase
Assay type: biochemical
Conditions: ratio vs thymine-α-CNP
endpoint.label: superior activity against HCMV DNA polymerase compared to thymine-α-CNP

{"compound": "Cc1cn(C[C@H]2CC=CC[C@H]2COC(C(=O)O)P(=O)(O)O)c(=O)[nH]c1=O (relative stereo)", "target.entity": "HCMV DNA polymerase (UL54) (Human cytomegalovirus, UniProt P08546)", "test.value": "8- to 13 fold"}
{"compound": "Cc1cn(Cc2ccccc2COC(C(=O)O)P(=O)(O)O)c(=O)[nH]c1=O (stereo not shown)", "target.entity": "HCMV DNA polymerase (UL54) (Human cytomegalovirus, UniProt P08546)", "test.value": "~ 3 fold"}
{"compound": "Cc1cn(C[C@H]2C[C@H]2COC(C(=O)O)P(=O)(O)O)c(=O)[nH]c1=O (relative stereo)", "target.entity": "HCMV DNA polymerase (UL54) (Human cytomegalovirus, UniProt P08546)", "test.value": "8- to 13 fold"}
{"compound": "Cc1cn(C[C@H]2CCCC[C@H]2COC(C(=O)O)P(=O)(O)O)c(=O)[nH]c1=O (relative stereo)", "target.entity": "HCMV DNA polymerase (UL54) (Human cytomegalovirus, UniProt P08546)", "test.value": "8- to 13 fold"}
